Field: TGI. Provide a value for each of the compounds that follow.
# Tested on: TK-10 renal
# Experiment Description: NCI tumour cell line growth inhibition, 48 h

Notebook: `COc1cc(-c2n/c(=C\c3c(O)[nH]c4ccc(Cl)cc34)cc3c2=Nc2ccccc2-3)cc(OC)c1OC` , TGI read as 3.2 µM

Notebook: `CC1(C)OCC2(CO1)CSCCCSCC1(COC(C)(C)OC1)CSCCCSC2` , TGI read as > 100 µM

Notebook: `N=CCCN(CCC=N)c1ccc(/C=C2\CN(NC(=O)c3ccc(Cl)cc3)C(c3ccccc3)=N2)cc1` , TGI read as > 100 µM

Notebook: `O=C(CC(=O)c1ccc([N+](=O)[O-])cc1)C(=O)Nc1nccs1` , TGI read as > 100 µM

Notebook: `O=C(/C=C1\C(=O)N(Cc2ccc([N+](=O)[O-])cc2)c2ccccc21)c1ccc(OCCN2CCCCC2)cc1` , TGI read as 2.74 µM

Notebook: `CN1CCN(c2ccc(-c3ccc4ncc(C#N)c(Nc5ccc(F)c(Cl)c5)c4c3)cc2)CC1` , TGI read as 18.8 µM

Notebook: `C=C(C)[C@@H]1CC[C@]2(C)CC[C@]3(C)[C@H](CC[C@@H]4[C@@]5(C)CC[C@H](OC(=O)c6ccccc6)C(C)(C)[C@@H]5CC[C@]43C)[C@@H]12` , TGI read as > 100 µM

Notebook: `CCN(CC)CCNc1ccc2ncn3c4c(OC)ccc(OC)c4c(=O)c1c23` , TGI read as > 100 µM

---

Field: TGI. Provide a value for each of the compounds that follow.
# System: DU-145 prostate
# Experiment Description: NCI tumour cell line growth inhibition, 48 h

Notebook: COC(=O)CCC(C)[C@H]1CCC2C3C(C[C@H](OC(C)=O)[C@@]21C)[C@@]1(C)CCC2(C[C@H]1C[C@H]3OC(C)=O)OOC1(CCC(C)CC1)OO2 (stereo not given in full) , TGI read as > 100 µM

Notebook: CCCCC1Cc2ccccc2-c2n1c1ccccc1[n+]2C (stereo not given) , TGI read as > 100 µM

Notebook: `COc1ccc(/C(CCl)=C(\Nc2ccccc2)c2ccc(OC)c(OC)c2)cc1OC` , TGI read as > 100 µM

Notebook: `Cc1nc(Cl)c(Cl)c(Cl)n1` , TGI read as 9.24 µM

Notebook: `CSc1c(C#N)c(O)n(-c2ccc(C)cc2)c(=O)c1C#N` , TGI read as > 100 µM

Notebook: NC(=O)C(c1ccccc1)N1OC2C(=O)N(Cc3ccccc3)C(=O)C2C1c1cccc(Oc2ccc(Cl)cc2)c1 (stereo not given) , TGI read as > 100 µM

Notebook: `Clc1cc(OCc2nn3c(Cc4ccccc4)nnc3s2)ccc1OCc1nn2c(Cc3ccccc3)nnc2s1` , TGI read as > 100 µM

Notebook: COC(=O)C1=C(OC(=O)/C(=C/c2ccc(Cl)cc2Cl)c2ccc(Cl)cc2Cl)C(C(=O)OC)[C@@]2(O)[C@@H](C(=O)OC)[C@H](C)C[C@@H]1[C@@H]2C(=O)OC (stereo not given in full) , TGI read as > 100 µM

Notebook: `CCCCN(CCCC)c1ccc(C(=N)c2ccc(N(C)C)cc2)cc1` , TGI read as 2.23 µM

Notebook: `O=C(O)CN=C(C(=NCC(=O)O)c1ccccc1)c1ccccc1` , TGI read as > 100 µM

Notebook: `Cc1cc(=O)oc2c(CN3CCCCC3)c(O)ccc12` , TGI read as > 100 µM

Notebook: `C[n+]1noc(/N=N\[O-])c1-c1cc(-c2c(/N=N\[O-])on[n+]2C)cc(-c2c(/N=N/[O-])on[n+]2C)c1` , TGI read as > 100 µM

Notebook: `CNC(=O)CCNC(=O)CCC(=O)N(C)C` , TGI read as > 100 µM

Notebook: `N#Cc1nc(C2CC2)oc1N` , TGI read as > 100 µM

Notebook: `CCC[C@H](O)[C@@H](CNc1cc(NC(C)=O)nc(NC(C)=O)n1)N(Cc1ccccc1)Cc1ccccc1` , TGI read as > 100 µM

Notebook: `Nc1nc(N)c(C2=CCN(Cc3ccccc3)CC2)c(=O)[nH]1` , TGI read as > 100 µM

Notebook: `COc1ccc2c(c1)[C@]1(C[C@H]1c1ccc3c(/C=C/c4ccc(CN5C[C@@H](C)O[C@@H](C)C5)cc4)n[nH]c3c1)C(=O)N2` , TGI read as 45.6 µM

Notebook: COc1cc(C2S/C(=C/c3ccccc3)C(=O)N2c2cc(Cl)ccc2Cl)cc(OC)c1OC (stereo not given) , TGI read as > 100 µM

Notebook: `COc1cc(-c2n/c(=C\c3c(O)[nH]c4ccc(Cl)cc34)cc3c2=Nc2ccccc2-3)cc(OC)c1OC` , TGI read as 2.59 µM

Notebook: O=C(c1ccco1)C1CC(c2ccc3ccccc3c2O)=NN1 (stereo not given) , TGI read as > 100 µM

---

# Tested on: SF-268 CNS
# Experiment Description: NCI tumour cell line growth inhibition, 48 h
Field: GI50. Provide a value for each of the compounds that follow.

SF-268 CNS GI50 of `O=C(COc1ccc(/C=C2\Oc3ccccc3C2=O)cc1)Nc1nccs1` is 36.8 µM

SF-268 CNS GI50 of `Cc1ccc(S(=O)(=O)OC[C@]23CCC(C)(C)C[C@H]2C2=CC[C@@H]4[C@@]5(C)CCCNC(C)(C)[C@@H]5CC[C@@]4(C)[C@]2(C)CC3)cc1` is 2.32 µM

SF-268 CNS GI50 of `N#CC(C#N)=Cc1c(-c2ccccc2)[nH]c2ccccc12` is 8.81 µM

---

Field: TGI. Provide a value for each of the compounds that follow.
# Test system: BT-549 breast
# Experiment Description: NCI tumour cell line growth inhibition, 48 h

BT-549 breast TGI of `Oc1ccc(Cl)cc1-c1[nH]c(=S)nc(-c2ccccc2)c1Cl` is > 100 µM

BT-549 breast TGI of `C[C@@]12c3c4ccc(C=O)c3Oc3ccc(C=O)c(c31)Oc1c(C=O)ccc(c12)O4` is > 100 µM

BT-549 breast TGI of `N#CC(C#N)=Cc1c(-c2ccccc2)[nH]c2ccccc12` is > 100 µM

BT-549 breast TGI of `O=C1NCN(c2ccccc2)C12CCN(CCc1ccc3[nH]c(=S)[nH]c3c1)CC2` is > 100 µM

BT-549 breast TGI of `CN(CCC#N)c1ccc(/C=C(\C#N)c2cccc(C(F)(F)F)c2)cc1` is 34.3 µM

BT-549 breast TGI of NCCC(=O)N[C@H](Cc1cc(O)c(O)c(SCC(NC(=O)CC[C@H](N)C(=O)O)C(=O)NCC(=O)O)c1)C(=O)O (some centres undefined) is > 50 µM

BT-549 breast TGI of `CC1(C)OCC2(CO1)CSCCCSCC1(COC(C)(C)OC1)CSCCCSC2` is > 100 µM

BT-549 breast TGI of O=C1c2ccccc2NC(c2cc(Cl)cc(Cl)c2O)N1CCc1ccccn1 (centres undefined) is > 100 µM

BT-549 breast TGI of `Nc1ccc(-c2ncc3cc(-c4cccc(-c5cc6cnc(-c7ccc(N)cc7)nc6c6ccccc56)c4)c4ccccc4c3n2)cc1` is > 100 µM

BT-549 breast TGI of C[C@]12CCC3c4ccc(O)cc4CC[C@H]3C1CC(=O)N(N)C2=O (some centres undefined) is > 100 µM

BT-549 breast TGI of `O=C(O)CN=C(C(=NCC(=O)O)c1ccccc1)c1ccccc1` is > 100 µM

BT-549 breast TGI of `NC(=O)c1cc(-c2ccncc2)cc(-c2ccccc2)c1N` is > 25 µM

BT-549 breast TGI of `CCN(CC)C(=O)CC1=C(C)/C(=C/c2[nH]c(-c3ccc[nH]3)cc2OC)N=C1C` is 47.1 µM

BT-549 breast TGI of `Cc1oc2nc[nH]c(=O)c2c1C(=O)/C=C/c1ccc(Cl)cc1` is 6.55 µM

BT-549 breast TGI of `Cc1cc(C)nc(NS(=O)(=O)c2ccc(NN=c3c4ccccc4n(C)c4ccccc34)cc2)n1` is > 100 µM

BT-549 breast TGI of N=C(N)C1CN(CCc2cnc[nH]2)C(=O)NC1=O (centres undefined) is > 100 µM

BT-549 breast TGI of CCOC(=O)C1=C(C)NC2SC(=O)/C(=C\c3ccccc3Cl)N2C1c1ccccc1 (centres undefined) is > 100 µM

BT-549 breast TGI of COc1ccc(-c2cc(-c3ccccc3)n(C3OCC(OC(C)=O)C(OC(C)=O)C3OC(C)=O)c(=S)c2C#N)cc1 (centres undefined) is > 100 µM

BT-549 breast TGI of `CCOC(=O)N1CCN(c2c(C)nc(C)[nH]c2=O)CC1` is > 100 µM

BT-549 breast TGI of COC(=O)CCC(C)[C@H]1CCC2C3C(C[C@H](OC(C)=O)[C@@]21C)[C@@]1(C)CCC2(C[C@H]1C[C@H]3OC(C)=O)OOC1(CCC(C)CC1)OO2 (some centres undefined) is > 100 µM

BT-549 breast TGI of COC(=O)C1=C(OC(=O)/C(=C/c2ccc(Cl)cc2Cl)c2ccc(Cl)cc2Cl)C(C(=O)OC)[C@@]2(O)[C@@H](C(=O)OC)[C@H](C)C[C@@H]1[C@@H]2C(=O)OC (some centres undefined) is > 100 µM

BT-549 breast TGI of `Nc1nc(N)c(C2=CCN(Cc3ccccc3)CC2)c(=O)[nH]1` is > 100 µM

BT-549 breast TGI of CCC(CS(=O)(=O)O)[N+](=O)[O-] (centres undefined) is > 100 µM

BT-549 breast TGI of COc1ccc(C(C#N)NC23CC4CC(CC(C4)C2)C3)cc1OC (centres undefined) is > 100 µM

BT-549 breast TGI of `Cc1nc2ccccc2c(=O)n1-c1n[nH]c2ccccc12` is > 100 µM

BT-549 breast TGI of `O[C@@]1(c2cccs2)c2cccc(Cl)c2[C@](O)(c2cccs2)c2cccc(Cl)c21` is 48.1 µM

BT-549 breast TGI of C=CCN1C(=O)CC1N(CC=C)S(=O)(=O)c1ccc(C)cc1 (centres undefined) is > 100 µM

BT-549 breast TGI of `Cc1cc2cccnc2c2ncccc12` is 41.9 µM

BT-549 breast TGI of `C[n+]1noc(/N=N\[O-])c1-c1cc(-c2c(/N=N\[O-])on[n+]2C)cc(-c2c(/N=N/[O-])on[n+]2C)c1` is > 100 µM

BT-549 breast TGI of NC(=O)C(c1ccccc1)N1OC2C(=O)N(Cc3ccccc3)C(=O)C2C1c1cccc(Oc2ccc(Cl)cc2)c1 (centres undefined) is > 100 µM

BT-549 breast TGI of `CN1CCN(CCCOc2cccc3nc(Nc4ccc(Cl)c(F)c4)ccc23)CC1` is 7.73 µM

BT-549 breast TGI of `CCCCCCCC(=O)OC[n+]1ccc(-c2c(COC(=O)NC(C)C)c(COC(=O)NC(C)C)c3n2CCC3)cc1` is > 94.1 µM

BT-549 breast TGI of `c1cc(-c2csc(-c3ccsc3)c2)cs1` is > 100 µM

BT-549 breast TGI of `CO[C@H]1O[C@@H]2CO[C@@H](c3ccccc3)O[C@H]2[C@@H]2CC=CCC[C@]12O` is 69 µM

BT-549 breast TGI of `CCOc1cc(-c2nc3ccccn3c2/N=C/c2cc([N+](=O)[O-])cc([N+](=O)[O-])c2O)ccc1O` is > 100 µM

BT-549 breast TGI of `Cc1cc(=O)oc2c(CN3CCCCC3)c(O)ccc12` is > 100 µM

BT-549 breast TGI of `[N-]=[N+]=Nc1ccc(NCCCCCC(=O)ON2C(=O)CCC2=O)c([N+](=O)[O-])c1` is > 100 µM

BT-549 breast TGI of CC1CC(=O)Nc2cc(Cl)ccc2N1C(=O)C1CC1 (centres undefined) is > 100 µM

BT-549 breast TGI of `FC(F)(F)c1nc2ccc(SSc3ccc4nc(C(F)(F)F)[nH]c4c3)cc2[nH]1` is > 100 µM
